From: ChEMBL document CHEMBL1201862

Target: Tyrosine-protein phosphatase non-receptor type 5 (Homo sapiens, UniProt P54829)
Sequence (P54829 whole entry): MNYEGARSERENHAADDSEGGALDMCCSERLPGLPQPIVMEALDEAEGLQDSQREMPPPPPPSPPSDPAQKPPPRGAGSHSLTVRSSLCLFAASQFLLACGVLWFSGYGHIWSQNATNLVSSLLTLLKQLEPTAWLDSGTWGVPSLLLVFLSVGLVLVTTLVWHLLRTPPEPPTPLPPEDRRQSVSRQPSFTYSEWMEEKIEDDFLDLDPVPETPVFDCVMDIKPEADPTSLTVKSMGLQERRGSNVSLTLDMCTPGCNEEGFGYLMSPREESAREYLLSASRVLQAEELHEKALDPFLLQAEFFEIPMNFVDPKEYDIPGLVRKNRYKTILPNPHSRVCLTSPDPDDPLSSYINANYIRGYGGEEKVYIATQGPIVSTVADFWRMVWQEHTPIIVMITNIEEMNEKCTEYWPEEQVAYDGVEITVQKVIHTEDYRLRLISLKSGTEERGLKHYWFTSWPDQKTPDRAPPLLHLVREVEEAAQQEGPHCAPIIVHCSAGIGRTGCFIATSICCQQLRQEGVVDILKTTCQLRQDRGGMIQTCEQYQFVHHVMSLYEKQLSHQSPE
Experiment: PTPN5 enzyme inhibition – biochemical, fluorescence intensity, uHTS hits, confirmation (AID 602372)
Format: functional
Settings: read-out: IC50_Mean
Activity calls are given as the source filed them.
Hello, when you answer, please use one of the following outcomes: true (1) for active, false (0) for inactive

Q: Can you look up the reported call for O=C(NCCCn1ccnc1)C(Cc1ccccc1)N1C(=O)c2ccccc2C1=O (centres undefined) for me?
Result: false (0)

Q: Try this compound too: CN1CCN(C(=S)C(=O)Nc2ccc(Br)cc2)CC1
Result: true (1)

Q: Try this compound too: Cn1c(=O)[nH]c(=O)c2c1nc(SCCN1CCCCC1)n2CCCc1ccccc1
Result: false (0)

Q: Try this compound too: COc1ccc(NC(=S)N(CCC(C)C)C2CCN(C(C)C)CC2)cc1Cl
Result: true (1)

----------
Biological target: Mannose-6-phosphate isomerase (Homo sapiens, UniProt P34949)
Sequence (P34949 whole entry): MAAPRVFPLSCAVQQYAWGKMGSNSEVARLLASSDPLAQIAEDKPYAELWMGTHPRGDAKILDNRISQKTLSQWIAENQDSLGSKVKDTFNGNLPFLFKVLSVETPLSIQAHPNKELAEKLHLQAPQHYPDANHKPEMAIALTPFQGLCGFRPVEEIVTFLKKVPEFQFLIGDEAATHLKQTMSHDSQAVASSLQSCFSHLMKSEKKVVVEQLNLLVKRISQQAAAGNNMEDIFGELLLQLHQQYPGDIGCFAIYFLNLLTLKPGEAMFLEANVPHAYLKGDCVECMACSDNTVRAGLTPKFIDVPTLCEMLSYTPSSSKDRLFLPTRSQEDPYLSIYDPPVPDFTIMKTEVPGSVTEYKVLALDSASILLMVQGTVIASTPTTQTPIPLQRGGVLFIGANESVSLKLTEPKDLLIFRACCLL
Assay: MPI inhibition at elevated mannose 6-phosphate – biochemical, fluorescence intensity, high mannose 6-phosphate, primary screen (AID 1220)
Attribute Measured: IC50

Q: Which IC50 reading was recorded for the molecule O=C(O)/C=C/C(=O)Nc1ccc2c(c1)NC(=O)CO2 ?
Result: > 50 µM (not active)

Q: Try this molecule too: CCOc1cc2c(C#N)c(N3CCOCC3)nc(N)c2c(N)n1
Result: > 50 µM (not active)

Q: Try this molecule too: Cc1cccc(Oc2c([N+](=O)[O-])c(=O)n(C)c3ccccc23)c1
Result: > 50 µM (not active)

Q: Try this molecule too: C(=N/Nc1cc(N2CCOCC2)nc(N2CCOCC2)n1)/c1ccccc1
Result: > 50 µM (not active)

----------
Target: Hexokinase HKDC1 (Homo sapiens)
Sequence (Q2TB90 whole entry): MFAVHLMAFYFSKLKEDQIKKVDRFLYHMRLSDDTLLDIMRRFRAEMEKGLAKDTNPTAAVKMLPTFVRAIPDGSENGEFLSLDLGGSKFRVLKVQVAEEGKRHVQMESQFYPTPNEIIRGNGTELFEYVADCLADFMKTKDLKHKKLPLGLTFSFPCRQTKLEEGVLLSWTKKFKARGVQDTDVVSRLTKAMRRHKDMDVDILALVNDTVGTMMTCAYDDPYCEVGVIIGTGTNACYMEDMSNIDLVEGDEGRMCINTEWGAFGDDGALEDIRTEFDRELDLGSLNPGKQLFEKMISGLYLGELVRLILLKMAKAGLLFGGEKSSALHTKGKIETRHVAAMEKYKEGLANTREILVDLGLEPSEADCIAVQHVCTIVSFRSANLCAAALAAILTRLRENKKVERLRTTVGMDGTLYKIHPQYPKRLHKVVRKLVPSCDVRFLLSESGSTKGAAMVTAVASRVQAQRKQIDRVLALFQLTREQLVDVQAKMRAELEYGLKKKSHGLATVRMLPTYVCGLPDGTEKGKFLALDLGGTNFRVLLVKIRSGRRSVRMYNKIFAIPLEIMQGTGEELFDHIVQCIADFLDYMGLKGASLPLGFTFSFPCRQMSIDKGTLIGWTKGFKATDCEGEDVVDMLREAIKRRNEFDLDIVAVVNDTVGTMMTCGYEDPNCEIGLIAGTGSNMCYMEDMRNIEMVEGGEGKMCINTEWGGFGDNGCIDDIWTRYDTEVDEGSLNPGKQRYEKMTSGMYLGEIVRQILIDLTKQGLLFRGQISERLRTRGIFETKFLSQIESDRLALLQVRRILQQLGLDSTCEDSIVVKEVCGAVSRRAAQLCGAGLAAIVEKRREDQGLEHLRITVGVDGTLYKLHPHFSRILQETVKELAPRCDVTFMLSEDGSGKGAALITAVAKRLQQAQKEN
Assay: inhibition of HKDC1 glucose phosphorylation – biochemical, W721R variant, dose response (AID 504729)
Assay type: functional
Active and inactive are the calls of the source.
Attribute Measured: IC50

Q: Quick check: IC50 on Hexokinase HKDC1 (Homo sapiens), item COc1ccc(C(=O)c2coc3c2C(=O)C(=O)c2ccccc2-3)cc1 ?
Result: 11.3 µM (active)

Q: Try this compound too: O=C(O)c1ccc(/N=C/c2c(O)ccc3ccccc23)cc1
Result: 38.1 µM (inactive)

Q: Try this compound too: CCc1nc2c(c(=O)c3ccccc3n2C)c(=O)n1-c1ccc(F)cc1
Result: 7.9 µM (active)

Q: Try this compound too: O=C(CSc1nnc(CCCN2C(=O)c3cccc4cccc(c34)C2=O)n1-c1ccccc1)N1CCCCC1
Result: 11.4 µM (active)
